Cited source for all entries: ChEMBL document CHEMBL2331451

- target or system: Metabotropic glutamate receptor 5 (Homo sapiens)
- Sequence (P41594 whole entry): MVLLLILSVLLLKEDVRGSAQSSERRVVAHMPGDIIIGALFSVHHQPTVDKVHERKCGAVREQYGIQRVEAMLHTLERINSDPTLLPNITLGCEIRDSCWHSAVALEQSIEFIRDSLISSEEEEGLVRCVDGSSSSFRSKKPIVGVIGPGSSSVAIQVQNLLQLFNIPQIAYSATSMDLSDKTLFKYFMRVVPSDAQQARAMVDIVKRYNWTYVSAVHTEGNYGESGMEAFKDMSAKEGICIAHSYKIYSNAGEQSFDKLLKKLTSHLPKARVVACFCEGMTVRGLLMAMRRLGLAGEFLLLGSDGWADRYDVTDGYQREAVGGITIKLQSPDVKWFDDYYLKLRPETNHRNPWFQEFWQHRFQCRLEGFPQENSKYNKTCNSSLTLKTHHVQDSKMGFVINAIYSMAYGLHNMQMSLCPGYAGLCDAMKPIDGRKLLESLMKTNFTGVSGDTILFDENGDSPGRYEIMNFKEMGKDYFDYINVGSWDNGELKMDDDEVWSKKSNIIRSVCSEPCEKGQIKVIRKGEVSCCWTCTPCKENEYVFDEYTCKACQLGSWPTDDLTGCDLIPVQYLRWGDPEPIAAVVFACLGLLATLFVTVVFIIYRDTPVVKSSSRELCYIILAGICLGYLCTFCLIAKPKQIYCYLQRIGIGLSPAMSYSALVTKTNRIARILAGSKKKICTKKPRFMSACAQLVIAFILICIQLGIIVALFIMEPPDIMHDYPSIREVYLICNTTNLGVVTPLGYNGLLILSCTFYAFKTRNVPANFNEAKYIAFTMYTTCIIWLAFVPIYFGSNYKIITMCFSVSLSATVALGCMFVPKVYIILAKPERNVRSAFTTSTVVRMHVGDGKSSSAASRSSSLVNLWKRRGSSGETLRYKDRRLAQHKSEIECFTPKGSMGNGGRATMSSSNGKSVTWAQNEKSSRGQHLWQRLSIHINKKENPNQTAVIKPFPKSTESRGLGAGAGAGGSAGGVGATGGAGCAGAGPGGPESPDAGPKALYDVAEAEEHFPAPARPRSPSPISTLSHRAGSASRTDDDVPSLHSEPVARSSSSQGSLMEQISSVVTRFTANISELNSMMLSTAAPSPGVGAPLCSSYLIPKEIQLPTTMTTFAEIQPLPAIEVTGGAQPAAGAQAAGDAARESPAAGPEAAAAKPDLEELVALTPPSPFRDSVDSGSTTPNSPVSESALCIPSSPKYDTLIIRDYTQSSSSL
- test: Negative allosteric modulation of human recombinant mGlu5 receptor expressed in Syrian hamster AV12 cells assessed as receptor-mediated changes in intracellular calcium concentration by FLIPR assay
pIC50: −log10 of the molar value.
measured endpoint: pIC50

Guide cases for pIC50, answers given:
{"columns": ["cpd smiles", "pIC50"],
 "data": [
  ["CNc1cccc(-c2c(-c3ccc4nn(C)cc4c3)nsc2NC(=O)[C@@H]2C[C@H]2C)n1", 7.21],
  ["C[C@@H]1C[C@H]1C(=O)Nc1snc(-c2ccc3nn(C)cc3c2)c1-c1cccc(CF)n1", 7.30],
  ["CC[C@@H]1C[C@H]1C(=O)Nc1snc(-c2ccc3nn(C)cc3c2)c1-c1cccc(N(C)C)n1", 7.46]
]}

I. C[C@@H]1C[C@H]1C(=O)Nc1snc(-c2ccc3nn(C)cc3c2)c1-c1cccc(C2CCCC2)n1
II. C[C@@H]1C[C@H]1C(=O)Nc1snc(-c2ccc3nn(C)cc3c2)c1-c1cccc(C(F)F)n1
III. C[C@@H]1C[C@H]1C(=O)Nc1snc(-c2ccc3n[nH]cc3c2)c1-c1cccc(N(C)C)n1
IV. CCc1cccc(-c2c(-c3ccc4nn(C)cc4c3)nsc2NC(=O)[C@@H]2C[C@H]2C)n1
List these items ordered by pIC50, big to small. Please write the labels in the order that was asked for. IV, I, III, II

====

- Species on record: Homo sapiens
- test: Selectivity ratio of IC50 for human recombinant mGlu1 receptor to IC50 for human recombinant mGlu5 receptor
measured endpoint: Ratio IC50

{"columns": ["cpd smiles", "reported result"],
 "data": [
  ["CC(C)c1cccc(-c2c(-c3ccc4n[nH]cc4c3)nsc2NC(=O)[C@@H]2C[C@H]2C)n1", 102]
]}

A. C[C@@H]1C[C@H]1C(=O)Nc1snc(-c2ccc3nn(C)cc3c2)c1-c1cccc(C2CCCC2)n1
B. COc1cccc(-c2c(-c3ccc4nn(C)cc4c3)nsc2NC(=O)[C@@H]2C[C@H]2C)n1
Which is greater in Ratio IC50, the first item A or the second item B ? # reply format: chosen label A
(A: 33, B: 5)

a. C[C@@H]1C[C@H]1C(=O)Nc1snc(-c2ccc3nn(C)cc3c2)c1-c1cccc(CF)n1
b. Cc1cccc(-c2c(-c3ccc4nn(C)cc4c3)nsc2NC(=O)[C@@H]2C[C@H]2C)n1
# compare Ratio IC50 for a vs b ; return the one with the smaller value State the label of the item chosen. a

P. CCCc1cccc(-c2c(-c3ccc4nn(C)cc4c3)nsc2NC(=O)[C@@H]2C[C@H]2C)n1
Q. CC(C)c1cccc(-c2c(-c3ccc4nn(C)cc4c3)nsc2NC(=O)C2CC2)n1
R. C[C@@H]1C[C@H]1C(=O)Nc1snc(-c2ccc3nn(C)cc3c2)c1-c1cccc(N(C)C)n1
List by increasing Ratio IC50. Reply format: the labels, ordered as requested. Q, P, R

====

- target or system: Metabotropic glutamate receptor 1 (Homo sapiens, UniProt Q13255)
- Sequence (Q13255 whole entry): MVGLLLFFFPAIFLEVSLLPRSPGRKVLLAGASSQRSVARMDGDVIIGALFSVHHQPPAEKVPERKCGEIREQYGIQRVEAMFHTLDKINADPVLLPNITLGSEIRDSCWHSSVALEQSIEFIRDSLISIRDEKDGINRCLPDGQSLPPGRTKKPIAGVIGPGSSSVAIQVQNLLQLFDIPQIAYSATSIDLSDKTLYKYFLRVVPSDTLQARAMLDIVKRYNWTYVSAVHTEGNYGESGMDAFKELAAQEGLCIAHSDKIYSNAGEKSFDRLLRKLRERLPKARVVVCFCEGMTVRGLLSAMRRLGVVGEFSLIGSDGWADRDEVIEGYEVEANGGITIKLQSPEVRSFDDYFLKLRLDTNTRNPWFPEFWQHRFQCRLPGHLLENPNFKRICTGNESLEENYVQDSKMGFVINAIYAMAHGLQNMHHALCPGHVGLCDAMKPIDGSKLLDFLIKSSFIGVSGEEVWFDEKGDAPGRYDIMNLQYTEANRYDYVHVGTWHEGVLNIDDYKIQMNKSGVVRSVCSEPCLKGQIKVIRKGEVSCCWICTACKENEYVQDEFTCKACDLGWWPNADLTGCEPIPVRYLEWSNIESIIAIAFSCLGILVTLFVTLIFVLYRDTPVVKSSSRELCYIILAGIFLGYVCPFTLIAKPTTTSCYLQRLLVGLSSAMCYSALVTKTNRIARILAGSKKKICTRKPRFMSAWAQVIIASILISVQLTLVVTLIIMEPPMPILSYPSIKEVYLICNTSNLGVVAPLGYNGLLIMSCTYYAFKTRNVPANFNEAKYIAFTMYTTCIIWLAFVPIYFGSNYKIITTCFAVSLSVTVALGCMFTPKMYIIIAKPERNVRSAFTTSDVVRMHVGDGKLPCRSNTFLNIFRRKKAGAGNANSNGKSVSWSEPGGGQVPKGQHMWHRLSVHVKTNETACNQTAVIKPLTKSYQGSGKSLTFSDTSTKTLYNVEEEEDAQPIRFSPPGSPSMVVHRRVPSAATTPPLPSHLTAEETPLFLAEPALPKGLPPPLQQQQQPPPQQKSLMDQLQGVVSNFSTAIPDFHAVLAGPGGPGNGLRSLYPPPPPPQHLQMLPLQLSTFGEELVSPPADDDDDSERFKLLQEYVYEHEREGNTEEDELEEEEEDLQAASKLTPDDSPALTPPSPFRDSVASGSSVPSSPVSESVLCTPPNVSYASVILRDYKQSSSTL
- test: Negative allosteric modulation of human recombinant mGlu1 receptor expressed in Syrian hamster AV12 cells assessed as receptor-mediated changes in intracellular calcium concentration by FLIPR assay
pIC50: −log10 of the molar value.
measured endpoint: pIC50

Examples from the recorded data:
{"columns": ["cpd smiles", "measured endpoint", "reported result"],
 "data": [
  ["C[C@@H]1C[C@H]1C(=O)Nc1snc(-c2ccc3nn(C)cc3c2)c1-c1cccc(C(F)F)n1", "pIC50", 5.99],
  ["C[C@@H]1C[C@H]1C(=O)Nc1snc(-c2ccc3nn(C)cc3c2)c1-c1cccc(CF)n1", "pIC50", 5.89],
  ["CC(C)c1cccc(-c2c(-c3ccc4nn(C)cc4c3)nsc2NC(=O)[C@@H]2C[C@H]2C)n1.Cl", "pIC50", 6.19],
  ["C[C@@H]1C[C@H]1C(=O)Nc1snc(-c2ccc3nn(C)cc3c2)c1-c1cccc(C2CCCC2)n1", "pIC50", 6.05]
]}

A. CCc1cccc(-c2c(-c3ccc4nn(C)cc4c3)nsc2NC(=O)[C@@H]2C[C@H]2C)n1
B. Cc1cccc(-c2c(-c3ccc4nn(C)cc4c3)nsc2NC(=O)[C@@H]2C[C@H]2C)n1
// pick min by pIC50: A , B Let me know the label of the one you choose. B
(B: 5.66, A: 6.55)

a. COc1cccc(-c2c(-c3ccc4nn(C)cc4c3)nsc2NC(=O)[C@@H]2C[C@H]2C)n1
b. CNc1cccc(-c2c(-c3ccc4nn(C)cc4c3)nsc2NC(=O)[C@@H]2C[C@H]2C)n1
Lower value for measured pIC50? Options: a , b // output: label of the selected item b

P. CC(C)c1cccc(-c2c(-c3ccc4n[nH]cc4c3)nsc2NC(=O)[C@@H]2C[C@H]2C)n1
Q. CC(C)c1cccc(-c2c(-c3ccc4nn(C)cc4c3)nsc2NC(=O)C2CC2)n1
Out of P and Q , name the one with the higher pIC50. The response must carry the label of the picked entry. Q
